Provenance of the data: PubChem BioAssay (NCI)

Overview of recorded log10 of TGI for various molecules
Test system: OVCAR-5 ovarian
ASSAY_NOTES: NCI tumour cell line growth inhibition, 48 h
Base-10 log of TGI, unit µM.

Record C[C@@H](Oc1cc(-c2cnn(C3CC4(CCCNC4)C3)c2)cnc1N)c1c(Cl)ccc(F)c1Cl (stereo not given in full) : what is its log10 of TGI with OVCAR-5 ovarian?
0.69

Likewise for COc1cc2c3c(c1O)C1(C=CC(=O)C=C1)CC3N(C)CC2 (stereo not given) ?
1.56

Likewise for CCCCCc1c(C)[nH]c(/C=c2\[nH]/c(=C3/C=c4ccccc4=N3)cc2OC)c1C ?
0.26

Likewise for Brc1ccc(Br)nn1 ?
1.39

Likewise for Oc1ccc2ccccc2c1Cc1c(O)ccc2ccccc12 ?
1.52

* * *

Tested on: OVCAR-3 ovarian
ASSAY_NOTES: NCI tumour cell line growth inhibition, 48 h; in the data active = GI50 below about 0.43 µM; inactive = the rest
Outcomes you can answer with include only these: T (active), F (inactive)

Previously resolved entries follow.
CC(C)[O-].CC(C)[O-].[O-]c1cccc2cccnc12.[O-]c1cccc2cccnc12.[Ti+4]	F
CC(=O)/C=C/C1=C(c2ccsc2)c2ccccc2CC1	F
Cc1cc2nc3c4ccccc4n(CCN(C)C)c3nc2cc1C	F
CCOc1cc(/C=N\NC(=O)N/N=C/c2ccc(O)c(OCC)c2)ccc1O	T

Alright, here's another compound for you.
Recorded test outcome, item CCC[CH2][Sn]1([CH2]CCC)[O]C(=O)c2cc(C)ccc2[O]1
F

* * *

Test system: NCI-H226 lung
ASSAY_NOTES: NCI tumour cell line growth inhibition, 48 h
Overview of recorded TGI for various compounds

CCCCCn1cnc2c1S(=O)(=O)N(C)C(NC(=O)c1ccccc1)=N2	> 100 µM
CC1=NN(c2ccccc2)C(=O)C1N=Nc1ccc(Br)c(C)c1 (centres undefined)	> 100 µM
CCOC(=O)[C@H]1C[C@]23CN(C(=O)OC(C)(C)C)CC[C@H]2CCC2(SCCCS2)[C@@H]3N1C	> 100 µM

Which measured TGI value corresponds to CSc1ccc(C2=NN(C(=O)c3ccc(N)cc3)C(c3ccc(F)cc3)C2)cc1 (centres undefined) ?
29.6 µM

Likewise for COc1ccc(/C(Cl)=C/c2ccc(Cl)c(Cl)c2)cc1 ?
53.2 µM

Likewise for O=c1cc(-c2nc3ccccc3[nH]2)[nH]c2nc(-c3nc4ccccc4[nH]3)cc(-c3ccc(Cl)cc3)c12 ?
49.2 µM

Likewise for CC1(C)C(=O)C2(C#N)CCC1C2 (centres undefined) ?
> 100 µM

Likewise for C=C1C(=O)OC2CC3(C)OC3C3OC3C3=CC(OC3=O)C12 (centres undefined) ?
28.5 µM

Likewise for COc1cc(/C=C/C(=O)c2ccc(Nc3nc(Nc4ccccc4)nc(Nc4ccc(Cl)cc4)n3)cc2)cc(OC)c1OC ?
> 32.5 µM

* * *

Overview of recorded TGI for various compounds
Test system: SN12C renal
ASSAY_NOTES: NCI tumour cell line growth inhibition, 48 h

Below, 9 compounds whose answers are already recorded.
CCOC(=O)N1CCC(=O)C[C@@H]1C/C=C/P1(=O)O[C@H](c2ccccc2)C(C)N1C(C)C (stereo not given in full)	> 100 µM
CN(NC(=O)CC(=O)NN(C)C(=S)c1ccc(Cl)cc1)C(=S)c1ccc(Cl)cc1	> 100 µM
Cc1cc(C)c2c(c1)C(=O)C1(C2)Cc2c(ccc(C)c2C)C1=O (stereo not given)	> 100 µM
Cc1cccc(N=C2NC(=O)C(CC(=O)Nc3ccc(Cl)cc3C)S2)c1 (stereo not given)	> 100 µM
CO[C@H](c1ccccc1)[C@H](C)N(C)c1ccc2ccccc2c1C1=NC(C)(C)CO1	33.2 µM
c1ccc2c3nnc(c2c1)SCCSCCCSCCS3	> 100 µM
CO[C@@]12CC(=O)/C(=C(O)\C=C\c3ccccc3)C(=O)[C@]1(OC)Cc1ccccc1O2	> 100 µM
CCOC(=O)C(Cc1ccc(OC)cc1)C(=O)OCC	21.7 µM
C[C@H](O)C(=O)SC[C@H](NC(=O)CC[C@@H](N)C(=O)O)C(=O)NCC(=O)O	> 100 µM

Note: attention shifts to another entry.
Which measured TGI value corresponds to c1cnc2c(c1)Nc1cnncc1S2 ?
> 100 µM

* * *

Tested on: UO-31 renal
ASSAY_NOTES: NCI tumour cell line growth inhibition, 48 h
QUANTITY_MEASURED: TGI (µM)
Express the result in µM but write the number alone.

NCCc1ccc2c(c1)C(=O)c1c(O)ccc(O)c1C2=O	25.7
O=C1c2ccccc2C(=O)c2sc(Nc3ccc(Cl)c(Cl)c3)nc21	4.97
O=C(Nc1ccc(S(=O)(=O)NC2CCCCCC2)cc1)C(c1ccccc1)S(=O)(=O)c1ccc(F)cc1 (stereo unspecified)	3.52
Cc1cc2nc3c4ccccc4n(CCN(C)C)c3nc2cc1C	14.5

Note: attention shifts to another entry.
Which measured TGI value corresponds to COC(=O)Nc1nc2ccc(Sc3ccccc3)cc2[nH]1 ?
20.5

* * *

Overview of recorded GI50 for various molecules
Test system: NCI/ADR-RES ovarian
ASSAY_NOTES: NCI tumour cell line growth inhibition, 48 h

CSc1ccc(C2=NN(C(=O)c3ccc(N)cc3)C(c3ccc(F)cc3)C2)cc1 (configuration not stated)	16.1 µM
CC(C)N(C[C@H]1O[C@@H](n2cnc3c(N)ncnc32)[C@H](O)[C@@H]1O)C1CC(CCc2nc3ccc(C(C)(C)C)cc3[nH]2)C1 (some centres not stated)	> 100 µM
COc1ccc(-n2cc(-c3ccc(OC)c(OC)c3)nc2SCc2ccccc2)cc1Cl	42.7 µM
COc1ccc(-c2cncn2-c2cc(OC)c(OC)c(OC)c2)cc1F	0.0108 µM
Brc1ccc(Br)nn1	2 µM
CN(NC(=O)CC(=O)NN(C)C(=S)c1ccc(Cl)cc1)C(=S)c1ccc(Cl)cc1	13.6 µM

Note: attention shifts to another entry.
Which measured GI50 value corresponds to O=C(CC1(O)C(=O)Nc2c(Cl)ccc(Cl)c21)c1ccc(C2CC2)cc1 (configuration not stated) ?
0.406 µM

* * *

System: SF-539 CNS
ASSAY_NOTES: NCI tumour cell line growth inhibition, 48 h
Where a SMILES comes first, the peptide text is derived from it. The star is where a group is joined. Boc = CC(C)(C)OC(=O)*
Overview of recorded TGI for various compounds
Express the result in µM but write the number alone.

CCOC(=O)c1c(C(F)(F)F)oc2c1ccc1nc3nonc3nc12	32
COc1cc2c3c(c1O)C1(C=CC(=O)C=C1)CC3N(C)CC2 (stereo not given)	28.8
NCCc1ccc2c(c1)C(=O)c1c(O)ccc(O)c1C2=O	7.97
O=C(/C=C/c1ccc(Cl)c(Cl)c1)C1CCC(Cl)CC1 (stereo not given)	33.6
CCCCOc1ccc(S(=O)(=O)/N=C(\NN)Nc2ccc(Cl)cc2)cc1	36.7

Which measured TGI value corresponds to CCOC(=O)C(CC(C)C)NC(=O)C(Cc1ccccc1)NC(=O)CNC(=O)OC(C)(C)C (stereo not drawn) (Boc-Gly-Phe-Leu-OEt; configuration not given here) ?
28.5

Likewise for c1ccc2c3nnc(c2c1)SCCSCCCSCCS3 ?
40.6

Likewise for Cc1cc2nc3c4ccccc4n(CCN(C)C)c3nc2cc1C ?
4.66

Likewise for CC1OC(OC2C(O[C@@H]3C[C@@H]4CC[C@@H]5[C@H](CC[C@]6(C)[C@@H]7[C@H](C[C@@H]56)O[C@]5(CC[C@@H](C)CO5)[C@H]7C)[C@@]4(C)C[C@H]3O)OC(CO)C(OC3OC(CO)C(O)C(O)C3O)C2O)C(O)C(O)C1O (stereo not given in full) ?
3.16

Likewise for O=C(/C=C/c1cccc(B(O)O)c1)c1cccc(B(O)O)c1 ?
3.73

* * *

Test system: K-562 leukemia
ASSAY_NOTES: NCI tumour cell line growth inhibition, 48 h
QUANTITY_MEASURED: TGI

Below, 10 molecules whose answers are already recorded.
Cn1c2c(cc(-c3ccccc3)c1=O)COc1ccccc1-2	53.2 µM
CCOC(=O)CC(N1CC1)N1CC1	> 10 µM
O=P1(O)c2ccccc2CS(=O)(=O)Cc2ccccc21	> 100 µM
COC(=O)C(=O)C1CCCCC(C2=NC3NN=C(N)N3C2=O)C1=O (configuration not stated)	> 100 µM
COC1=CC(=O)c2ccccc2C1(C)C1=NC(C)(C)CO1 (configuration not stated)	> 100 µM
CCOC(=O)CNC(=O)C(CSC(=O)N(C)O)NC(=O)CCC(N)C(=O)O (configuration not stated)	> 2000 µM
ClC1=C(Cl)C(Cl)=C(Cl)C1=Cc1ccc(Cl)cc1	4.1 µM
O=C1/C(=C\c2c(-c3ccccc3)nn(-c3ccccc3)c2O)C(c2ccccc2)=NN1c1ccccc1	> 100 µM
COc1nc2c(c(=O)n1C)NC(C(O)C(O)CO)C=N2 (configuration not stated)	> 10 µM
Oc1[nH]c2ccccc2c1N=NC(=S)N1CCCC1	> 42.7 µM

Which measured TGI value corresponds to O=C1c2cccc3cc([N+](=O)[O-])cc(c23)C(=O)N1O ?
> 100 µM

Likewise for Cc1cc2c(C(C)C)c(O)c(O)c(C=O)c2c(O)c1-c1c(C)cc2c(C(C)C)c(O)c(O)c(C=O)c2c1O (tested in a mixture with another compound) ?
20.7 µM

Likewise for O=[N+]([O-])c1ccc(-c2ccccc2)c([As](=O)(O)O)c1 ?
> 100 µM

Likewise for CCCCOc1ccc(S(=O)(=O)/N=C(\NN)Nc2ccc(Cl)cc2)cc1 ?
> 100 µM

Likewise for Cc1ccccc1NC(=O)C(=O)Cc1cnc2ccccc2n1 ?
> 100 µM

Likewise for O=C(NO)c1cnc(N2CCN(S(=O)(=O)c3ccc4ccccc4c3)CC2)nc1 ?
> 40.9 µM
